AC50, 5-hydroxytryptamine receptor 7 (Homo sapiens), per-entry values.
readout kind: AC50

* NCC(CC(=O)O)c1ccc(Cl)cc1 (stereo unspecified) | > 10 µM
* CN(C)CCC(c1ccc(Cl)cc1)c1ccccn1 (stereo unspecified) | > 10 µM
* COc1ccc2c3c1O[C@H]1[C@@H](O)C=C[C@H]4[C@@H](C2)N(C)CC[C@@]341 | > 10 µM
* CCOc1ccccc1OCC1CNCCO1 (stereo unspecified) | > 10 µM
* CCCc1nc(C(C)(C)O)c(C(=O)OCc2oc(=O)oc2C)n1Cc1ccc(-c2ccccc2-c2nnn[nH]2)cc1 | > 10 µM
* O=[N+]([O-])c1cn2c(n1)OC[C@@H](OCc1ccc(OC(F)(F)F)cc1)C2 | > 10 µM
* Cc1c(OCC(F)(F)F)ccnc1C[S+]([O-])c1nc2ccccc2[nH]1 (stereo unspecified) | > 10 µM
* Cc1c(C(=O)NN2CCCCC2)nn(-c2ccc(Cl)cc2Cl)c1-c1ccc(Cl)cc1 | > 10 µM
* CN1CCN(CC/C=C2/c3ccccc3Sc3ccc(S(=O)(=O)N(C)C)cc32)CC1 | 0.254 µM
* CNS(=O)(=O)Cc1ccc2[nH]cc(CCN(C)C)c2c1 | 4.67 µM
* CCCCc1ncc(/C=C(\Cc2cccs2)C(=O)O)n1Cc1ccc(C(=O)O)cc1 | > 10 µM
